# assayTarget: AMP-activated protein kinase, AMPK (Homo sapiens) (UniProt P54646+O43741+P54619+Q9UGJ0+Q9Y478+Q13131+Q9UGI9)
# assayExplanation: AMP-dependent Kinase enzyme assay. An in vitro enzyme assay that detects ADP turnover that is directly proportional to AMPK activity. This uses naive AMPK that is activated during the assay with MK-8722
# Type: functional
# Design: scale not given: direction of the effect not stated beside the values
# conditionLabel: 30 µM
A collection of compounds and their measured Percent Effect
Give a bare numeral; the unit % is implied.

Some solved entries appear below for comparison.
>>> print(df.to_string())
                                   compound  reportedmetric  reportedresult
0  c1cncc(CN2CC[C@H]3O[C@@H](COCC4CC4)CC[C@H]32)c1  Percent Effect            10.2
1            CC(C)CN1CCC2(C1)CN(c1ncccn1)C2  Percent Effect             6.7

Look up Percent Effect of O=C(C1CC1)N1CCC2(CC1)OCCO2 and report it. -0.0617

###

A collection of compounds and their measured Percent Effect
# assayTarget: Shiga toxin 2 (Escherichia coli O157:H7) (UniProt P09385+P09386)
# assayExplanation: E. coli 0.157:H7 Shiga Toxin SOP - stx2 screening assay
# Format: functional
# Set-up: scale not given: direction of the effect not stated beside the values
# conditionLabel: 30 µM
Give a bare numeral; the unit % is implied.

>>> df
                                   compound  reportedresult
0  CN(CC(=O)N1CCCC1c1cnn(C)c1)c1ccc(Cl)cn1 (centres undefined)            29.7

Look up Percent Effect of Cc1ccc(NC(=O)c2n[nH]c(-n3cnnc3)n2)cc1C and report it. -18.5

Look up Percent Effect of Cc1ncnc2c1CCN(c1cc(C(F)(F)F)ncn1)CC2 and report it. 6.49

Look up Percent Effect of COCCOc1ccc(NC(=O)C2CCC2)cn1 and report it. -10.4

###

# assayTarget: Shiga toxin 2 (Escherichia coli O157:H7) (UniProt P09385+P09386)
# assayExplanation: E. coli 0.157:H7 Shiga Toxin SOP - stx2 screening assay
# Assay type: functional
# Design: scale not given: direction of the effect not stated beside the values
# conditionLabel: 30 µM
reportedMetric: Percent Effect (%)
Give a bare numeral; the unit % is implied.

Some solved entries appear below for comparison.
>>> df
                                   compound  reportedmetric  reportedresult
0  COc1c(C2CCCN2C(=O)c2csc(C(C)C)n2)c(C)nn1C (stereo unspecified)  Percent Effect            4.42
1  CCc1[nH]ncc1C(=O)N1CCCC(n2nc(C)nc2C)C1 (stereo unspecified)  Percent Effect            12.8
2  Cc1ccc(C2CSCCN2C(=O)C2=CCCC2)o1 (stereo unspecified)  Percent Effect            5.19
3  Cc1ccc(CN(Cc2cccnc2)C2CC(C)(C)NC(C)(C)C2)s1  Percent Effect            13.4

Look up Percent Effect of Cc1cc(C[C@@H]2COC[C@H]2NCc2ccccc2C(F)(F)F)on1 and report it. -7.33

Look up Percent Effect of CCCN1CCCn2nc(CNS(=O)(=O)c3ccc(C)cc3)cc2C1 and report it. 6.63

###

# assayTarget: Aspartate--tRNA(Asp/Asn) ligase (Mycobacterium tuberculosis (strain ATCC 25618 / H37Rv)); note: in the data most compounds retested in dose-response had high values
# assayExplanation: Assay for Asp RNA synthetase-1 from Mycobacterium tuberculosis
# Type: functional
# Set-up: scale not given: direction of the effect not stated beside the values
# conditionLabel: 30 µM
reportedMetric: Percent Effect (%)
Give a bare numeral; the unit % is implied.

State recorded Percent Effect with Aspartate--tRNA(Asp/Asn) ligase (Mycobacterium tuberculosis (strain ATCC 25618 / H37Rv)), entry CCC(CC)C(CNC(=O)Nc1cc(C)nn1C)N1CCOCC1 (stereo not drawn) , no comment. -8.48

State recorded Percent Effect with Aspartate--tRNA(Asp/Asn) ligase (Mycobacterium tuberculosis (strain ATCC 25618 / H37Rv)), entry Cn1cc(CC2CCN(C(=O)NCc3cn4ccsc4n3)C2)cn1 (stereo not drawn) , no comment. -4.64

State recorded Percent Effect with Aspartate--tRNA(Asp/Asn) ligase (Mycobacterium tuberculosis (strain ATCC 25618 / H37Rv)), entry Cc1cc(C(=O)NCCN2CCCC(C)C2)nn1C (stereo not drawn) , no comment. -4.16

State recorded Percent Effect with Aspartate--tRNA(Asp/Asn) ligase (Mycobacterium tuberculosis (strain ATCC 25618 / H37Rv)), entry Cc1cnc(CN2CCCC(c3cc(C(F)(F)F)[nH]n3)C2)cn1 (stereo not drawn) , no comment. -6.86

State recorded Percent Effect with Aspartate--tRNA(Asp/Asn) ligase (Mycobacterium tuberculosis (strain ATCC 25618 / H37Rv)), entry CC(C)c1ccc(OCn2ccc(C(=O)N3CCCC3)n2)cc1 , no comment. 5.38

State recorded Percent Effect with Aspartate--tRNA(Asp/Asn) ligase (Mycobacterium tuberculosis (strain ATCC 25618 / H37Rv)), entry COCc1nc(C(=O)NS(=O)(=O)c2ccc(C)s2)cs1 , no comment. 0.678

###

# assayTarget: Shiga toxin 2 (Escherichia coli O157:H7) (UniProt P09385+P09386)
# assayExplanation: E. coli 0.157:H7 Shiga Toxin SOP - stx2 screening assay
# Assay type: functional
# Parameters: scale not given: direction of the effect not stated beside the values
# conditionLabel: 30 µM
reportedMetric: Percent Effect (%)
Give a bare numeral; the unit % is implied.

Some solved entries appear below for comparison.
In [3]: df
Out[3]:
                                   molecule  reportedmetric  reportedresult
0  Cc1noc(C(C)N2CCN(CC(=O)N3CCOCC3)CC2)n1 (stereo unspecified)  Percent Effect        -0.00886
1  O=C(CCc1cc(O)no1)N1CCCC(COc2ccc(F)cc2)C1 (stereo unspecified)  Percent Effect           -19.8
2     CC(C)OCCN1CCN(C(=O)c2cccc(CC#N)c2)CC1  Percent Effect           -12.3

Look up Percent Effect of O=C(c1cn(-c2cc(N3CCSCC3)ncn2)cn1)N1CCSCC1 and report it. 1.44

Look up Percent Effect of CCc1nc(C2CCCN(C(=O)c3ccc4c(c3)nnn4C)C2)no1 (stereo unspecified) and report it. -19.5

Look up Percent Effect of O=C1[C@H]2CN(c3ncccn3)C[C@H]2CN1Cc1ccncc1 and report it. -21.9

Look up Percent Effect of CCC1=N[C@@]2(CC[C@@H]3CN(S(=O)(=O)CC)C[C@@H]32)C(=O)N1CC(C)C and report it. -9.69

Look up Percent Effect of CCc1noc(CNc2cc(F)ccc2OCC2CCCO2)n1 (stereo unspecified) and report it. -4.24

Look up Percent Effect of O=C(NCC(O)c1cccs1)c1cccc(Cl)c1 (stereo unspecified) and report it. -20.5

Look up Percent Effect of Cc1cccc(Cn2ccc(NS(C)(=O)=O)n2)c1 and report it. -21.6

Look up Percent Effect of CN(C)C(=O)CCC(=O)NCc1cccnc1-n1cnc2ccccc21 and report it. -4.51

###

# assayTarget: Shiga toxin 2 (Escherichia coli O157:H7) (UniProt P09385+P09386)
# assayExplanation: E. coli 0.157:H7 Shiga Toxin SOP - stx2 screening assay
# Type: functional
# Parameters: scale not given: direction of the effect not stated beside the values
# conditionLabel: 30 µM
Use -10% as the dividing line for Percent Effect, with the line itself on the label 1 side and lower values as label 0.

Observe how each entry below is paired with its result.
In [3]: df
Out[3]:
                                   compound  assignedlabel
0        COc1cccc(C(=O)Nc2cc(CC(C)C)nn2C)c1        label 1
1  CN(C)c1cc(C(=O)N2CCN(S(C)(=O)=O)CC2)ccn1        label 0
2  Cc1nn(C)c(N(C)C)c1CNCC(O)COc1ccccc1 (stereo unspecified)        label 0
3  Cc1noc([C@H]2C[C@@H]3CCN(CC4CC4)C[C@H]3O2)n1        label 1
4  COc1cc(C(=O)N(Cc2cnn(C)c2)C(C)C)ccc1OCC(N)=O        label 1
5  Cc1cccc(-c2ccc(C(=O)NCCN(C)C3CC3)c(=O)[nH]2)c1        label 1
6    O=C(Nc1ccc(CCN2CCC(O)CC2)cc1)Nc1cccnc1        label 0
7      Cc1cnn(C2CN(Cc3nc(-c4ccco4)no3)C2)c1        label 1

// inclusive: Percent Effect at least -10%? input: Cc1ccccc1N1CC2(CCN(S(=O)(=O)C3CC3)C2)CC1=O (stereo unspecified) label 1

// inclusive: Percent Effect at least -10%? input: c1coc(CN2C[C@H](OCC3CCOCC3)[C@H]3COC[C@H]32)c1 label 1

// inclusive: Percent Effect at least -10%? input: CCOCCC(=O)Nc1cccc(Oc2ccccn2)c1 label 0
